The values you see were collected from patent US20260137790A1.

settings: human, in vivo, sc, 0.1 mg, M1 AUC, mean
Starred links: 1 amine or outer side, 2 acyl side, 3 side chain; linkers in the order of their positions; H or OH if unused. Positions of bridges follow the written chain, without caps; N, C: chain ends. Non-standard residues stand in square brackets, D forms with d. Residues, ends and D or L forms follow the SMILES beside them. Groups on a side chain read outwards from the residue. *: point of attachment. X1 = CC(=O)NCCCC[C@H](NC(=O)CC[C@H](N)C(N)=O)C(=O)*; εLys = N[C@@H](CCCCN[*:1])C(=O)[*:2]; Dab = NCC[C@H](N)C(=O)O
endpoint: AUC (ng·h/mL)
Numbers only, in ng·h/mL.

-- ask So what does the record say about AUC for CC[C@H](C)[C@@H]1NC(=O)[C@H](Cc2ccccc2)NC(=O)[C@@H](N)CSSC[C@@H](C(=O)N2CCC[C@H]2C(=O)N[C@@H](CCNC(=O)[C@@H](N)CCCCNC(=O)[C@H](CCCCNC(C)=O)NC(=O)CC[C@H](N)C(N)=O)C(=O)NCC(N)=O)NC(=O)[C@H](CC(N)=O)NC(=O)[C@H](CCC(N)=O)NC1=O [Compound M1] (H-CFIQNCP[Dab]([εLys-X1])G-NH2; disulfide 1-6) ?
-- reply 2.6
